target: UniProt:Q13464; settings: read-out: ROCK1 Average Ki; 1 μM ATP
Sequence (Q13464 2-1354 limits assumed): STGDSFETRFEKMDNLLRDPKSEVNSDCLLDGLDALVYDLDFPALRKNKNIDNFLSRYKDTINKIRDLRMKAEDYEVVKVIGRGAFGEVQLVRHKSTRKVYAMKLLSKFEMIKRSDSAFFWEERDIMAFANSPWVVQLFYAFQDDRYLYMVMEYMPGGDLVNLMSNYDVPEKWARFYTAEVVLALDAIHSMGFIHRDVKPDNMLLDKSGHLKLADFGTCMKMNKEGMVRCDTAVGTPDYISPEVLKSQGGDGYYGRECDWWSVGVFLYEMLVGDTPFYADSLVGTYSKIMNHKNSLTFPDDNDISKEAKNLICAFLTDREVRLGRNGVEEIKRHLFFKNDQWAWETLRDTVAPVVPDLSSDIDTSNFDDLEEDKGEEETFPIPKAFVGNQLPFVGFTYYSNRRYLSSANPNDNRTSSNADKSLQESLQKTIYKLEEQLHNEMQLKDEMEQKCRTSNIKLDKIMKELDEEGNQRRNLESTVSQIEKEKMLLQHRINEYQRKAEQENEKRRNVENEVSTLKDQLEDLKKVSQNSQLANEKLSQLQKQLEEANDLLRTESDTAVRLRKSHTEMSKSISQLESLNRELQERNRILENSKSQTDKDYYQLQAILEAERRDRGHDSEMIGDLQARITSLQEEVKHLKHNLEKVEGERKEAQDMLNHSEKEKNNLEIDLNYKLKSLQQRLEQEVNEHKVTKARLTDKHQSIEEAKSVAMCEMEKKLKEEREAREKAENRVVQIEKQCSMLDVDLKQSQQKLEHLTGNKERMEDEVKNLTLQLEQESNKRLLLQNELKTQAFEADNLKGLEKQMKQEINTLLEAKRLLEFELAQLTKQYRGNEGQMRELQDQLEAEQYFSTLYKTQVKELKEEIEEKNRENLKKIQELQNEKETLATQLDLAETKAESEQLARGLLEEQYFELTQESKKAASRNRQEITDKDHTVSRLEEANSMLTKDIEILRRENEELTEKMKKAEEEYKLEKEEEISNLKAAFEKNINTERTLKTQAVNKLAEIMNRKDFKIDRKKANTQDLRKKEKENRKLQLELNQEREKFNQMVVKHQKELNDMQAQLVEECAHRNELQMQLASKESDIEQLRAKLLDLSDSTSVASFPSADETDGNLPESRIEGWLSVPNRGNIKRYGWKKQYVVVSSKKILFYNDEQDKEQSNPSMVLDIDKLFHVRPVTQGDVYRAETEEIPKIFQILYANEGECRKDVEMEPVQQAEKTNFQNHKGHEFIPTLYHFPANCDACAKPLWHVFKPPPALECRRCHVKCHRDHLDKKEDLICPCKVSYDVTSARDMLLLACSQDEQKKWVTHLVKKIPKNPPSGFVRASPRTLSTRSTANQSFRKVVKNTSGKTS

[
  {
    "compound": "N#Cc1c[nH]c2nccc(N3CCC[C@@]4(CCCCN4)C3)c12",
    "measured_on": "UniProt:Q13464",
    "Ki [nM]": 152
  },
  {
    "compound": "c1cc(N2CCCCC2)c2c(-c3cn[nH]c3)c[nH]c2n1",
    "measured_on": "UniProt:Q13464",
    "Ki [nM]": 31
  },
  {
    "compound": "c1cc(-c2c[nH]c3nccc(N4CCCC5(CCCCN5)C4)c23)ncn1 (stereo not shown)",
    "measured_on": "UniProt:Q13464",
    "Ki [nM]": 89
  },
  {
    "compound": "c1cc(-c2c[nH]c3nccc(N4CCC5(CCNC5)C4)c23)cnn1 (stereo not shown)",
    "measured_on": "UniProt:Q13464",
    "Ki [nM]": 0.448
  },
  {
    "compound": "Cc1cnc(-c2c[nH]c3nccc(N4CCCC5(CCN5)C4)c23)s1 (stereo not shown)",
    "measured_on": "UniProt:Q13464",
    "Ki [nM]": 100000
  },
  {
    "compound": "N#Cc1c[nH]c2nccc(N3CCCC4(CCCCN4)C3)c12 (stereo not shown)",
    "measured_on": "UniProt:Q13464",
    "Ki [nM]": 174
  },
  {
    "compound": "c1ncc(-c2c[nH]c3nccc(N4CCCC(N5CCNCC5)C4)c23)cn1 (stereo not shown)",
    "measured_on": "UniProt:Q13464",
    "Ki [nM]": 231
  },
  {
    "compound": "c1cc(-c2c[nH]c3nccc(N4CCC5(CCCN5)C4)c23)cnn1 (stereo not shown)",
    "measured_on": "UniProt:Q13464",
    "Ki [nM]": 34.1
  },
  {
    "compound": "c1csc(-c2c[nH]c3nccc(N4CC[C@]5(CCCCN5)C4)c23)n1",
    "measured_on": "UniProt:Q13464",
    "Ki [nM]": 100000
  },
  {
    "compound": "c1cc(-c2c[nH]c3nccc(O[C@@H]4CCCNC4)c23)ncn1",
    "measured_on": "UniProt:Q13464",
    "Ki [nM]": 3.84
  },
  {
    "compound": "CN[C@H]1CCCN(c2ccnc3[nH]cc(-c4cnccn4)c23)C1",
    "measured_on": "UniProt:Q13464",
    "Ki [nM]": 51100
  },
  {
    "compound": "c1ncc(-c2c[nH]c3nccc(N4CCC5(CCCNC5)CC4)c23)cn1",
    "measured_on": "UniProt:Q13464",
    "Ki [nM]": 22.3
  },
  {
    "compound": "Cc1cnc(-c2c[nH]c3nccc(N4CCCC5(CCCN5)C4)c23)s1 (stereo not shown)",
    "measured_on": "UniProt:Q13464",
    "Ki [nM]": 100000
  },
  {
    "compound": "Cn1cc(-c2c[nH]c3nccc(N4CCCCC4)c23)cn1",
    "measured_on": "UniProt:Q13464",
    "Ki [nM]": 43.5
  },
  {
    "compound": "C[C@@H]1CCCN1c1ccnc2[nH]cc(C#N)c12",
    "measured_on": "UniProt:Q13464",
    "Ki [nM]": 2.77
  },
  {
    "compound": "c1cnc(-c2c[nH]c3nccc(N4CCCC5(CCCCN5)C4)c23)cn1 (stereo not shown)",
    "measured_on": "UniProt:Q13464",
    "Ki [nM]": 643
  },
  {
    "compound": "N#Cc1c[nH]c2nccc(N3CCCC(c4ccccc4)C3)c12 (stereo not shown)",
    "measured_on": "UniProt:Q13464",
    "Ki [nM]": 682
  },
  {
    "compound": "CN[C@H]1CCCN(c2ccnc3[nH]cc(-c4cn[nH]c4)c23)C1",
    "measured_on": "UniProt:Q13464",
    "Ki [nM]": 167
  },
  {
    "compound": "c1ncc(-c2c[nH]c3nccc(N4CC[C@@]5(CCCN5)C4)c23)cn1",
    "measured_on": "UniProt:Q13464",
    "Ki [nM]": 76.9
  }
]
